Biological target: rat NaP2b (SLC34A2) (Rattus norvegicus)
Construct: host or cells: HEK293
Sequence (Q9JJ09 whole entry): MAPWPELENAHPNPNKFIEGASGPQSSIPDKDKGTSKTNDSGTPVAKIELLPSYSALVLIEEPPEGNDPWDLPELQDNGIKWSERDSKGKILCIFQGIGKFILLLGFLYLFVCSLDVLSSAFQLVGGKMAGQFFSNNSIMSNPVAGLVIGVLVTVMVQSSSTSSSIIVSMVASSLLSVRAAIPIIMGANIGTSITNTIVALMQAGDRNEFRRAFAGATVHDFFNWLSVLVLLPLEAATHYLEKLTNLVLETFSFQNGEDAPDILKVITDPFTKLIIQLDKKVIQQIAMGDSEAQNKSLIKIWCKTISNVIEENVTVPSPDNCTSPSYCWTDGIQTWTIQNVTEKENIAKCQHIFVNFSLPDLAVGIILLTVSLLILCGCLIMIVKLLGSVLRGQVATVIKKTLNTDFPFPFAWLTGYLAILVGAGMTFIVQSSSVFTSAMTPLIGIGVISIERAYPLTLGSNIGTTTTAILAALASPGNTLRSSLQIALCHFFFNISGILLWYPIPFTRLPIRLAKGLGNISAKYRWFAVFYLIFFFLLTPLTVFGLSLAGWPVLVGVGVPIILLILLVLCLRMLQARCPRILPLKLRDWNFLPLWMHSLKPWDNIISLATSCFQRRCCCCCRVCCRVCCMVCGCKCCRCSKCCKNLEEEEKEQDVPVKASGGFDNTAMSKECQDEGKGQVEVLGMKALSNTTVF
Test: Inhibition of NaP2b-mediated Pi (33P) uptake in transfected HEK293 cells, rat NaP2b
Format: cell-based
Conditions: 33P Pi uptake, 0.1 mM phosphate, value given as pIC50 range
pIC50: −log10 of the molar value.
readout-kind: pIC50

{"sample-smiles": "CCN(CC)c1ccc(NC(=O)c2cccc(CCCOCCOCCOCCOCCC(=O)N3CCN(C(=O)c4cccc(CCCOCCOCCOCCOCCOCCOCCOCCOCCOC)c4)CC3)c2)c(-c2cc(C(=O)NCc3cccc(C(F)(F)F)c3)ccn2)c1", "readout-kind": "pIC50", "reported-value": "5.10 to 6.00"}
{"sample-smiles": "COCCNC(=O)[C@H]1CCCN(C(=O)c2cccc(C(=O)Nc3ccc(N4CCCCC4)cc3-c3cc(C(=O)N[C@H]4CCCc5ccccc54)ccn3)c2)C1", "readout-kind": "pIC50", "reported-value": "> 6.00"}
{"sample-smiles": "CCN(CC)c1ccc(NC(=O)c2cccc(CCCOCCOCCOCCOCCNS(=O)(=O)c3ccc(CCC(=O)O)cc3)c2)c(-c2cc(C(=O)NCc3cccc(C(F)(F)F)c3)ccn2)c1", "readout-kind": "pIC50", "reported-value": "> 6.00"}
{"sample-smiles": "CN(CCN1CCOCC1)C(=O)c1cccc(SCc2cccc(C(=O)Nc3ccc(N4CCCCC4)cc3-c3cc(C(=O)NCc4cccc(C(F)(F)F)c4)ccn3)c2)c1", "readout-kind": "pIC50", "reported-value": "5.10 to 6.00"}
{"sample-smiles": "CCN(CC)c1ccc(NC(=O)c2cccc(C(=O)N(C)CCN(C)CCOCCOCCOCCNC(N)=O)c2)c(-c2cc(C(=O)N[C@H]3CCCc4ccccc43)ccn2)c1", "readout-kind": "pIC50", "reported-value": "5.10 to 6.00"}

These data points were gathered from patent US20140023611A1.
